Origin of values: patent US20260232827A1

Target: T1, human sodium-dependent phosphate transporter 2B (NaPi2b) (human, UniProt O95436 1-690)
T1 construct: UniProt ID is given as 095436 [sic]; also called hNaPi2b; Hu NaPi2b
T1 sequence: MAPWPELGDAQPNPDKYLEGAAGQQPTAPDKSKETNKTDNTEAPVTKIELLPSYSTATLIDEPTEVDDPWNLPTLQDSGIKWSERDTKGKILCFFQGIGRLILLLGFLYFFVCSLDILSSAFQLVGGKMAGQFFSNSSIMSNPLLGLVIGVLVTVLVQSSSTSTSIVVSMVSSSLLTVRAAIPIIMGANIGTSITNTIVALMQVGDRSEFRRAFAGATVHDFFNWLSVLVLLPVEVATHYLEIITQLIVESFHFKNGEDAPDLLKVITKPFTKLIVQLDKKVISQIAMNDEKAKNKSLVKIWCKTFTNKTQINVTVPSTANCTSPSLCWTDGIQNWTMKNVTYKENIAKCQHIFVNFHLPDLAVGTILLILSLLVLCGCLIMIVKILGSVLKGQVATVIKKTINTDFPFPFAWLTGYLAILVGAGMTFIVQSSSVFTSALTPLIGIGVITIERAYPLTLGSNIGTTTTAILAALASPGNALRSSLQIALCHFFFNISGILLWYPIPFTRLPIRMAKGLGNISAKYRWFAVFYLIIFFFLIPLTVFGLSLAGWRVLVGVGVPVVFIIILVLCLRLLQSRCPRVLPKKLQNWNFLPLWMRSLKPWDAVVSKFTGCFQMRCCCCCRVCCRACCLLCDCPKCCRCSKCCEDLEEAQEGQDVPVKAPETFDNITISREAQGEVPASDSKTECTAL
Assay: flow cytometry, IGROV-1 cells (endogenous NaPi2b); apparent Kd
VALUE KIND: pKd
// pKd is dimensionless: -log10 of concentration (M)

Examples with answers:
>>> assay_result("v29453 (H4L2) (antibody, human IgG1, kappa, V domains shown, Humanized IgG1/kappa; clones CL_#21506 and CL_#21508) VH: QVQLVQSGAEVKKPGASVKMSCKASGFTFTSYNVHWVRQAPGQGLEWIAAISPGNGDLSYAQKFQGRATLTVDRSTSTAYMELSSLRSEDTAVYYCARGRTGMGAVDYWGQGTLVTVSS VL: DVQMTQSPSSLSASVGDRVTITCRASQDVYSYLNWYQQKPGKAVKLLIYYTSRLQSGVPSRFSGSGSGTDYTLTISSLQPEDFATYYCQQYNIFPWTFGQGTKLEIKR")
9.09
>>> assay_result("v29460 (H1L1) (antibody, human IgG1, kappa, V domains shown, Humanized IgG1/kappa) VH: QVQLVQSGAEVKKPGASVKVSCKASGFTFTSYNVHWVRQAPGQGLEWMGAISPGNGDLSYAQKFQGRVTMTRDTSTSTVYMELSSLRSEDTAVYYCARGRTGMGAVDYWGQGTLVTVSS VL: DIQMTQSPSSLSASVGDRVTITCRASQDVYSYLNWYQQKPGKAPKLLIYYTSRLQSGVPSRFSGSGSGTDFTLTISSLQPEDFATYYCQQYNIFPWTFGQGTKLEIKR")
8.78
>>> assay_result("v29455 (H2L2) (antibody, human IgG1, kappa, V domains shown, Humanized IgG1/kappa) VH: QVQLVQSGAEVKKPGASVKVSCKASGFTFTSYNVHWVRQAPGQGLEWIAAISPGNGDLSYAQKFQGRVTMTVDTSTSTVYMELSSLRSEDTAVYYCARGRTGMGAVDYWGQGTLVTVSS VL: DVQMTQSPSSLSASVGDRVTITCRASQDVYSYLNWYQQKPGKAVKLLIYYTSRLQSGVPSRFSGSGSGTDYTLTISSLQPEDFATYYCQQYNIFPWTFGQGTKLEIKR")
8.93

Request the reported pKd associated with v23855 (parental mouse-human chimeric anti-NaPi2b antibody) (antibody, human IgG1, kappa, V domains shown, IgG1/kappa full-size antibody; also called parental chimeric) VH: QAYLQQSGAELVRPGASVKMSCKASGFTFTSYNVHWVKQTPRQGLEWIAAISPGNGDLSYNQRFKDKATLTVDRSSSTAYMQLSGLTSEDSAVYFCARGRTGMGAVDYWGQGTSVTVSS VL: DVQMTQTASSLSASLGDRVTISCRASQDVYSYLNWYQQKPHGTVKLLIYYTSRLQSGVPSRFTGSGSGTDYSLTISNLEPEDIATYYCQQYNIFPWTFGGGTKLEIKR
9.08

Request the reported pKd associated with v29454 (H3L2) (antibody, human IgG1, kappa, V domains shown, Humanized IgG1/kappa) VH: QVQLVQSGAEVKKPGASVKMSCKASGFTFTSYNVHWVRQAPGQGLEWIAAISPGNGDLSYAQKFQGRATLTVDTSTSTAYMELSSLRSEDTAVYYCARGRTGMGAVDYWGQGTLVTVSS VL: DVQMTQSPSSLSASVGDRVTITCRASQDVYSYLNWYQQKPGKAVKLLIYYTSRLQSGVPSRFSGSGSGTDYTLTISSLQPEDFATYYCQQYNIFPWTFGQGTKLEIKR
9.04
